// reported kinact/KI per item
# test_target: caspase-3 (Homo sapiens)
# Sequence (P42574 29-175 limits assumed): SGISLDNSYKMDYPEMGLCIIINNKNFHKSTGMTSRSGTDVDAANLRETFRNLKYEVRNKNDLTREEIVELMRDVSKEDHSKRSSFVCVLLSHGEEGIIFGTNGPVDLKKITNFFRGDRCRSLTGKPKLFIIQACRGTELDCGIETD
# Sequence (P42574 176-277 limits assumed): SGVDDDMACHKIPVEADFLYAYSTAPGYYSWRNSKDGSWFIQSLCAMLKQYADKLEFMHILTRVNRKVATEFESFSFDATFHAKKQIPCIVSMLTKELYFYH
# assay: Biochemical inhibition assay, kinact/Ki with AMAC substrate
# condition_details: read-out: kinact/Ki C3
Square brackets hold non-standard residues; d marks the D form. Peptide text beside a SMILES is read from it. * marks the point of attachment. AspCH2OCO(5-Me-thien-2-yl) = Cc1ccc(C(=O)OCC(=O)[C@H](CC(=O)O)N*)s1; Phe(F5) = N[C@@H](Cc1c(F)c(F)c(F)c(F)c1F)C(=O)O; X5 = Cc1cccc(C)c1C(=O)OCC(=O)[C@@H](CC(=O)O)N*; X4 = Cc1ccc(C(=O)OCC(=O)[C@@H](CC(=O)O)N*)s1; d(β3hL) = CC(C)C[C@@H](N)CC(=O)O; 3Pal = N[C@@H](Cc1cccnc1)C(=O)O; d3Pal = N[C@H](Cc1cccnc1)C(=O)O; X3 = O=C(CCCc1cn(CCF)nn1)*; X1 = O=C(Cn1cc(CCCF)nn1)*; Ahx = NCCCCCC(=O)O
Number only, in M⁻¹ s⁻¹; omit the unit.

Look over these answered cases.
- compound: "Cc1ccc(C(=O)OCC(=O)[C@H](CC(=O)O)NC(=O)[C@H](Cc2ccccc2)NC(=O)[C@H](Cc2c(F)c(F)c(F)c(F)c2F)NC(=O)[C@H](CC(=O)O)NC(=O)[C@H](Cc2cccnc2)NC(=O)CNC(=O)CNC(=O)CNC(=O)Cn2cc(CCCF)nn2)s1 [Inhibitor 7] (X1-GGG[3Pal]D[Phe(F5)]F-{AspCH2OCO(5-Me-thien-2-yl)})"
  measure_unit: "M⁻¹ s⁻¹"
  kinact/KI: "1.62e+06"
- compound: "Cc1ccc(C(=O)OCC(=O)[C@@H](CC(=O)O)NC(=O)[C@@H](Cc2ccccc2)NC(=O)C[C@@H](CC(C)C)NC(=O)[C@@H](CC(=O)O)NC(=O)[C@@H](Cc2cccnc2)NC(=O)CCCCCNC(=O)CCCCCNC(=O)CCCc2cn(CCF)nn2)s1 [Inhibitor 1] ({X3-Ahx-Ahx}-[d3Pal][dD][d(β3hL)][dF]-X4)"
  measure_unit: "M⁻¹ s⁻¹"
  kinact/KI: 73500
- compound: "Cc1ccc(C(=O)OCC(=O)[C@H](CC(=O)O)NC(=O)[C@H](Cc2ccccc2)NC(=O)[C@H](Cc2c(F)c(F)c(F)c(F)c2F)NC(=O)[C@H](CC(=O)O)NC(=O)[C@H](Cc2cccnc2)NC(=O)CCCCCNC(=O)Cn2cc(CCCF)nn2)s1 [Inhibitor 6] ({X1-Ahx}-[3Pal]D[Phe(F5)]F-{AspCH2OCO(5-Me-thien-2-yl)})"
  measure_unit: "M⁻¹ s⁻¹"
  kinact/KI: 851000
- compound: "Cc1ccc(C(=O)OCC(=O)[C@H](CC(=O)O)NC(=O)[C@H](Cc2ccccc2)NC(=O)[C@H](Cc2c(F)c(F)c(F)c(F)c2F)NC(=O)[C@H](CC(=O)O)NC(=O)[C@H](Cc2cccnc2)NC(=O)Cn2cc(CCCF)nn2)s1 [Inhibitor 8] (X1-[3Pal]D[Phe(F5)]F-{AspCH2OCO(5-Me-thien-2-yl)})"
  measure_unit: "M⁻¹ s⁻¹"
  kinact/KI: 549000

Query string: Requested field: kinact/KI. Item: Cc1cccc(C)c1C(=O)OCC(=O)[C@@H](CC(=O)O)NC(=O)[C@@H](Cc1ccccc1)NC(=O)C[C@@H](CC(C)C)NC(=O)[C@@H](CC(=O)O)NC(=O)[C@@H](Cc1cccnc1)NC(=O)CCCCCNC(=O)CCCCCNC(=O)CCCc1cn(CCF)nn1 [Inhibitor 3] ({X3-Ahx-Ahx}-[d3Pal][dD][d(β3hL)][dF]-X5)
Result string: 206000

----------
# test_target: caspase-9 (Homo sapiens)
# Sequence (P55211 1-315 limits assumed): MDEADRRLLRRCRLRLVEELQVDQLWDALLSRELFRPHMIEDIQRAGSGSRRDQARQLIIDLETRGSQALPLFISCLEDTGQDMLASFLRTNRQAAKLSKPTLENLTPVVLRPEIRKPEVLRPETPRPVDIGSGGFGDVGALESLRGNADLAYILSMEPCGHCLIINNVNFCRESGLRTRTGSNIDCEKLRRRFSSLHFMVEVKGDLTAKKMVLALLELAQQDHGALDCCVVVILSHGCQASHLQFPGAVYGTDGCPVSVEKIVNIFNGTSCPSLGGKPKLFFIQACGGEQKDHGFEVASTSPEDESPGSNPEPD
# Sequence (P55211 331-416 limits assumed): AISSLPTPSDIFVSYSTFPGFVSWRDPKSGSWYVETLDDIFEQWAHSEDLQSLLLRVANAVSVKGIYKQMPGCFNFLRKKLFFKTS
# assay: Biochemical inhibition assay, kinact/Ki with AMAC substrate
# condition_details: read-out: kinact/Ki C9
Square brackets hold non-standard residues; d marks the D form. Peptide text beside a SMILES is read from it. * marks the point of attachment. AspCH2OCO(5-Me-thien-2-yl) = Cc1ccc(C(=O)OCC(=O)[C@H](CC(=O)O)N*)s1; Phe(F5) = N[C@@H](Cc1c(F)c(F)c(F)c(F)c1F)C(=O)O; X2 = O=C(CCOCCOCCOCCOCCn1cc(CCCF)nn1)*; 3Pal = N[C@@H](Cc1cccnc1)C(=O)O; X1 = O=C(Cn1cc(CCCF)nn1)*; Ahx = NCCCCCC(=O)O
assay_endpoint: kinact/KI (M⁻¹ s⁻¹)
Number only, in M⁻¹ s⁻¹; omit the unit.

Look over these answered cases.
- molecule: "Cc1ccc(C(=O)OCC(=O)[C@H](CC(=O)O)NC(=O)[C@H](Cc2ccccc2)NC(=O)[C@H](Cc2c(F)c(F)c(F)c(F)c2F)NC(=O)[C@H](CC(=O)O)NC(=O)[C@H](Cc2cccnc2)NC(=O)Cn2cc(CCCF)nn2)s1 [Inhibitor 8] (X1-[3Pal]D[Phe(F5)]F-{AspCH2OCO(5-Me-thien-2-yl)})"
  kinact/KI, M⁻¹ s⁻¹: 400
- molecule: "Cc1ccc(C(=O)OCC(=O)[C@H](CC(=O)O)NC(=O)[C@H](Cc2ccccc2)NC(=O)[C@H](Cc2c(F)c(F)c(F)c(F)c2F)NC(=O)[C@H](CC(=O)O)NC(=O)[C@H](Cc2cccnc2)NC(=O)CCCCCNC(=O)Cn2cc(CCCF)nn2)s1 [Inhibitor 6] ({X1-Ahx}-[3Pal]D[Phe(F5)]F-{AspCH2OCO(5-Me-thien-2-yl)})"
  kinact/KI, M⁻¹ s⁻¹: 900
- molecule: "Cc1ccc(C(=O)OCC(=O)[C@H](CC(=O)O)NC(=O)[C@H](Cc2ccccc2)NC(=O)[C@H](Cc2c(F)c(F)c(F)c(F)c2F)NC(=O)[C@H](CC(=O)O)NC(=O)[C@H](Cc2cccnc2)NC(=O)CCOCCOCCOCCOCCn2cc(CCCF)nn2)s1 [Inhibitor 5] (X2-[3Pal]D[Phe(F5)]F-{AspCH2OCO(5-Me-thien-2-yl)})"
  kinact/KI, M⁻¹ s⁻¹: 1000
- molecule: "Cc1ccc(C(=O)OCC(=O)[C@H](CC(=O)O)NC(=O)[C@H](Cc2ccccc2)NC(=O)[C@H](Cc2c(F)c(F)c(F)c(F)c2F)NC(=O)[C@H](CC(=O)O)NC(=O)[C@H](Cc2cccnc2)NC(=O)CNC(=O)CNC(=O)CNC(=O)Cn2cc(CCCF)nn2)s1 [Inhibitor 7] (X1-GGG[3Pal]D[Phe(F5)]F-{AspCH2OCO(5-Me-thien-2-yl)})"
  kinact/KI, M⁻¹ s⁻¹: 700

We now examine a further molecule.
Query string: Requested field: kinact/KI. Item: Cc1ccc(C(=O)OCC(=O)[C@H](CC(=O)O)NC(=O)[C@H](Cc2ccccc2)NC(=O)[C@H](Cc2c(F)c(F)c(F)c(F)c2F)NC(=O)[C@H](CC(=O)O)NC(=O)[C@H](Cc2cccnc2)NC(=O)CNC(=O)[C@H](CCC(=O)O)NC(=O)CNC(=O)Cn2cc(CCCF)nn2)s1 [Inhibitor 4] (X1-GEG[3Pal]D[Phe(F5)]F-{AspCH2OCO(5-Me-thien-2-yl)})
Result string: 800
